- System: SYO-1 tumor spheroids, viability % test/control
- test: Anticancer human tumor SYO-1 cell line growth inhibition;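 note: spheroids exposed to agents for 7 days before viability read; 100% = DMSO vehicle control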
- setupConditions: second compound 1 µM; first compound 10 µM; active compounds read low; spheroids with HUVEC and MSC

- compound: "[2H]c1nc(C)nc([2H])c1-c1cc(NC[C@@H](C)c2cccc3c(C(=O)NC)ccnc23)ncn1 + Cn1nnc2c(C(N)=O)ncn2c1=O"
  outputUnit: "%"
  viability, T/C: 83
- compound: "Cc1cc(C)c(CNC(=O)c2cc(-c3ccc(CN4CCOCC4)cc3)cc3c2cnn3C2CCCC2)c(=O)[nH]1 + Cn1nnc2c(C(N)=O)ncn2c1=O"
  outputUnit: "%"
  viability, T/C: 97
- compound: "CC(C)n1c(=O)n(C)c2cnc3cc(F)c(-c4ccc(OCCCN5CCCCC5)nc4)cc3c21 + Cn1nnc2c(C(N)=O)ncn2c1=O"
  outputUnit: "%"
  viability, T/C: 59.1
